Let's look at some compounds and their measured TGI.
system: NCI-H460 lung; experiment: NCI tumour cell line growth inhibition, 48 h

compound | TGI
CC(=O)O[C@H]1CCC2[C@@H]3CCC4Cc5nc6c(nc5C[C@]4(C)C3CC[C@@]21C)CC1CC[C@@H]2C(CC[C@@]3(C)C2CC[C@@H]3C(C)CCCC(C)C)[C@@]1(C)C6 (stereo not given in full) | > 100 µM
Clc1cc2n[se]nc2cc1Cl | > 100 µM
N#C/C(=C/Sc1ccccc1)C(=O)O | > 100 µM
Cc1ccc2[nH]c3c(c2c1)C1CCC(C(C)(C)C)CC1C1C(=O)N(c2ccc4c(c2)OCO4)C(=O)C31 (stereo not given) | 3.27 µM
Cc1ccc(-c2nc(-c3cnccn3)n(C3OC(CO)C(O)C(O)C3O)n2)cc1 (stereo not given) | > 100 µM
O=S(O)CCCSSc1ccccc1 | > 100 µM
CSCCOC(=O)C(=[N+]=[N-])c1ccc([N+](=O)[O-])cc1 | > 100 µM
C[C@H](CCCNCCCNCCCN)[C@H]1CC[C@H]2[C@@H]3[C@H](OCCCN)C[C@H]4C[C@H](OCCCN)CC[C@]4(C)[C@H]3C[C@H](OCCCN)[C@]12C | > 34.7 µM
COC(=O)CSC(=S)Nc1nnc(NC(=S)SCOC(C)=O)n1C(=S)SCC(=O)OC | > 100 µM
COc1ccc2[nH]cc(CCNC(=O)[C@](O)(Cc3cn(C)c4ccccc34)[C@@]3(O)OCC(O)C3O)c2c1 (stereo not given in full) | > 100 µM
Cc1cc(C)nc(SCCc2cccc[n+]2C)n1 | > 100 µM
CCOP(=O)(OCC)[C@H]1OC(C)(C)O[C@@H]1CO | > 100 µM
O=C1c2ccccc2C(=O)N1C/C=C/CO | > 100 µM
O=c1[nH]c(-n2[nH]c3c(c2=O)CCCC3)nc(O)c1-c1ccccc1 | > 100 µM
CN(CC(=O)O)c1ncc2c(n1)-c1ccccc1OC2 | > 100 µM
COc1cc(/C=C2\C(=O)N(C(=O)c3ccc(NC(C)=O)cc3)N=C2C)ccc1O | > 100 µM
CSc1nc(SC)c2ncn(C3CC(Oc4ccc(C)cc4)C(COc4ccc(C)cc4)O3)c2n1 (stereo not given) | > 100 µM
SC1CCCN(Cc2ccccc2)C1 (stereo not given) | 64.7 µM
CCCCCCCCCCCCCCCCOCC(CCl)OP(=O)(O)OP(=O)(O)OCC1OC(n2ccc(N)nc2=O)C(O)C1O (stereo not given) | > 100 µM
O=S(=O)(c1ccccc1)C1(CCC2OCCO2)C=CC2(CC1)OCCO2 (stereo not given) | > 100 µM

---

test system: SF-295 CNS; test: NCI tumour cell line growth inhibition, 48 h

compound | TGI
COC(=O)/C=C\C(C#N)(C#N)N=Cc1ccc(Br)s1 | 33 µM
O=C1OC(c2ccccc2)(c2cc(Br)c(O)c(Br)c2)c2ccccc21 (stereo not drawn) | 59.1 µM
Clc1ccc(-c2ccc(-c3nn4c(CNc5ccccc5)nnc4s3)o2)c(Cl)c1 | > 100 µM
COC(=O)c1ccc(Cl)cc1NC(=O)C1CCCCC1 | > 100 µM
Cn1/c(=N\N=C(\CNCCO)[C@@H](O)[C@@H]2OC(c3ccccc3)OC[C@H]2O)sc2ccccc21 (stereo partly drawn) | 33.9 µM
CC(=O)N1CC(=O)N2C(=O)/C(=C/c3ccc(Cl)cc3)N=C12 | > 100 µM
CCCCCCCCCCCCOC1C(C(CC(=O)N2CCN(c3cccc(C(F)(F)F)c3)CC2)NS(=O)(=O)c2cc(Cl)cc(Cl)c2)OC2OC(C)(C)OC21 (stereo not drawn) | > 100 µM
COc1ccc(OC)c(CC(C)N)c1 (stereo not drawn) | > 100 µM
COc1ccc2c(c1OC)OCC(CN(C)C)C2=O (stereo not drawn) | > 100 µM
CC(=O)c1cccc(NC(=O)C(=O)Nn2c(N)nnc2N)c1 | > 100 µM
CCOC(=O)C(C)(C)C(O)C(C)C (stereo not drawn) | > 100 µM
COc1ccc2c(ccc3c(COC(=O)NC(C)C)c(COC(=O)NC(C)C)n(C)c32)c1 | 46.2 µM
CC1=C[P+](Cc2ccccc2)(c2ccccc2)CC1 (stereo not drawn) | > 100 µM
CCOC(=O)c1ccc(NC(=O)SCCC(=O)O)cc1 | > 100 µM
O=C1OC2CC=CC1C2 (stereo not drawn) | > 100 µM
O=C(Oc1ccc(Cl)cc1[N+](=O)[O-])c1ccccc1 | > 100 µM
CC(O)C1(CNc2cc(Cl)nc(N)n2)CC(CCc2ccccc2)C1 (stereo not drawn) | 27.6 µM
COc1cc(N(Cc2ccc3nc(OC)c(OC)nc3c2)Cc2ccc3nc(OC)c(OC)nc3c2)cc(OC)c1OC | > 50 µM
N#C/C(=C/Sc1ccccc1)C(=O)O | > 100 µM
CSc1ncnc2c1ncn2C1OC(CO)C(O)OC1O (stereo not drawn) | > 71.3 µM
C/C(=N\NC(=S)N(C)CCN(C)C(=S)N/N=C(\C)c1ccccn1)c1ccccn1 | 19.6 µM
CN(Cc1ccccc1)C(=NC#N)N(C)Cc1ccccc1 | > 100 µM
CC[C@@H]1C[C@H]2CC3c4[nH]c5ccc(O)cc5c4CCN(C2)C31 | > 100 µM
CCC1C(=O)C(O)[C@H]2[C@@H]3C(O)CC4=CC(=O)CC[C@]4(C)[C@H]3CC[C@]12C (stereo partly drawn) | > 50 µM
O=C(Nc1nc2ccc(F)cc2s1)c1cccnc1Nc1ccc(Cl)cc1 | 7.83 µM
Fc1cccc2c1cc1ccc3cccc4ccc2c1c34 | > 100 µM
Nc1ncnc2c1ncn2[C@H]1CC[C@@H](NO)C1 | > 100 µM
Cc1ncsc1-c1ccc(CNC(=O)[C@@H]2C[C@@H](O)CN2C(=O)[C@@H](NC(=O)C2(C#N)CC2)C(C)(C)C)cc1 | > 100 µM
c1ccc(C(=NNc2cnc3ccccc3n2)c2ccccn2)cc1 | 12.8 µM
C[Si](C)(OCCS(=O)(=O)O)OC(=C1S(=O)(=O)OCCOS1(=O)=O)c1cccc2ccccc12 | > 100 µM
CC(C)(C)OC(=O)C1CC[C@@H](CC(=O)Oc2ccc([N+](=O)[O-])cc2)N1 (stereo partly drawn) | > 100 µM
CC/C(=C(/c1ccc(O)cc1)c1ccc(OCCN2CCCCC2)cc1)c1ccc(OC)cc1 | 3.62 µM
COc1cccc2c1c(C1=C(c3cn(C)c4ccccc34)C(=O)NC1=O)cn2C | > 25 µM
NCCC(=O)N[C@@H](Cc1cc(O)c(O)c(SCC(NC(=O)CC[C@H](N)C(=O)O)C(=O)NCC(=O)O)c1)C(=O)O (stereo partly drawn) | > 50 µM
C=CCSSCC=C | > 100 µM
CCCCCCCCCCCCCCCCOCC(CCl)OP(=O)(O)OP(=O)(O)OCC1OC(n2ccc(N)nc2=O)C(O)C1O (stereo not drawn) | > 100 µM
Clc1cc(Br)c2c3c(c(Br)cc(Cl)c13)C(Br)=C2Br | > 100 µM
O=C(NCc1ccncc1)C12CC3CC(C1)CC(c1ccc(Cl)cc1)(C3)C2 | 27.3 µM
CC1(C)CCC(C)(C)c2c1ccc(O)c2Cc1c(O)ccc2c1C(C)(C)CCC2(C)C | 4.99 µM
Cc1nc(C(N)=S)sc1C(=O)CC(=O)C(=O)Nc1nc2ccccc2[nH]1 | > 100 µM
COc1ccc(OC)c(-c2cc(=O)c3c(OC)c(OC)c(OC)c(OC)c3o2)c1 | 48.4 µM
O=C(Nc1ccc(Cl)c(Cl)c1)N1N=C2c3ccccc3CCC2C1c1ccc(Cl)cc1 (stereo not drawn) | > 100 µM
C1=NCCNCCNCCN=Cc2ccccc2OCc2cccc(n2)COc2ccccc21 | 94 µM
